Cited source for all entries: paper PMC5540273

System: WNK4
particulars: concentration: 1 μM, replicates: in singlicate; n = 1
Form field: %Inh (one value per entry).
Record the value in %, omitting the unit from your answer.

| molecule | experimentalTarget | %Inh, % |
| --- | --- | --- |
| Cc1nnc(-c2ccc(C)c(-c3ccc(C(=O)Nc4ccc(NS(C)(=O)=O)cc4)cc3)c2)o1 [GW702865] | WNK4 | 26 |

### Prompt Look up and report %Inh, with WNK4 as system, for [2H]C([2H])(c1cccc(C(F)(F)F)c1C)n1ccn2c(=O)nc(N3CCOCC3)cc12 [GSK2336394]
### Response 36

### Prompt # lookup: WNK4 %Inh, key = COc1cc(Nc2nccc(N3CCC(NC(=O)c4cccc(NC(C)=O)c4)C3)n2)cc(OC)c1OC (centres unmarked) [GSK1379754]
### Response 0

### Prompt System WNK4. Read-out %Inh. Item Cc1cccc(Cn2ccn3c(=O)cc(N4CCOCC4)nc23)c1 [GSK2297542] . Report value.
### Response 8

### Prompt # assay system WNK4: give %Inh of CNc1ncnc2[nH]ncc12 [SKF-18355]
### Response 0

### Prompt // fetch %Inh; item: COc1ccc(Nc2nccc(N3CCC(NC(=O)Nc4cccc(C(C)=O)c4)C3)n2)cc1 (centres unmarked) [GSK1379731] ; system: WNK4;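 also: KINOMEscan kinase panel screen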
### Response 0

### Prompt Retrieve %Inh on WNK4; query CC(C)(C)n1cnc2c(N)ncnc21 [SKF-97359]
### Response 0
